system: DNA; test: Binding affinity to calf thymus DNA assessed as change in melting temperature by thermal denaturation assay; format: nucleic-acid assay; details: Bos taurus
experimental readout: ΔTm (°C)
Write down the numeric answer in °C and omit the unit.

Use the examples below as a reference point.
Fc1ccc(/C=C/CSSC/C=C/c2ccc(F)cc2)cc1 :: 6
Clc1ccc(/C=C/CSSC/C=C/c2ccc(Cl)cc2Cl)c(Cl)c1 :: 8

// moving on: another record for ΔTm
Would you kindly share the measured ΔTm for Brc1ccccc1/C=C/CSSC/C=C/c1ccccc1Br ?
7
